This section presents molecules with their documented EC50 values.
ASSAYED SYSTEM: hSTING (Homo sapiens, UniProt Q86WV6, G230A/H232R/R293Q/R71H)
Sequence (Q86WV6 whole entry R71H/G230A/H232R/R293Q): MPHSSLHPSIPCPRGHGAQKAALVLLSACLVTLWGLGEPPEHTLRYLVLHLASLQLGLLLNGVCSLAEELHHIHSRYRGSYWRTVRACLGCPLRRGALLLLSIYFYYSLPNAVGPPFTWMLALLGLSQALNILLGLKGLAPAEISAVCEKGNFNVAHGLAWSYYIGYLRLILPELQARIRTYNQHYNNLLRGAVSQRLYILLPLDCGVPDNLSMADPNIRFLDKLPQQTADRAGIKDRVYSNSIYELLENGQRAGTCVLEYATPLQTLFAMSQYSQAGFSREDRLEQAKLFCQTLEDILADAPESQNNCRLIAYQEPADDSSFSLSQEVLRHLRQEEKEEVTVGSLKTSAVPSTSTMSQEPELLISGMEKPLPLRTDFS
PROTOCOL DESCRIPTION: STING reporter assay (luciferase) in THP1-Dual KO-IFNAR2 cells stimulated with 2'3'cGAMP
RECORDED CONDITIONS: 2'3'cGAMP 15 μM, 24 h, luciferase reporter activity
READOUT TYPE: EC50

| MOLECULE | ASSAYED SYSTEM | EXPERIMENTAL VALUE |
| --- | --- | --- |
| O=C(Nc1cnc(N2CCC3(CC2)CC3)c(F)c1)Nc1c[nH]c2ccc(Cl)cc12 | hSTING (Homo sapiens, UniProt Q86WV6, G230A/H232R/R293Q/R71H) | 40 to 200 nM |
| O=C(Nc1cnc(C2CC(F)(F)C2)c(Cl)c1)Nc1c[nH]c2ccccc12 | hSTING (Homo sapiens, UniProt Q86WV6, G230A/H232R/R293Q/R71H) | 40 to 200 nM |
| Cc1cc(NC(=O)Nc2c[nH]c3cc(F)c(F)cc23)cnc1N1CCC(F)(F)CC1 | hSTING (Homo sapiens, UniProt Q86WV6, G230A/H232R/R293Q/R71H) | 40 to 200 nM |
| COCCN1CCN(c2ncc(NC(=O)Nc3c[nH]c4cc(F)c(F)cc34)cc2C)CC1 | hSTING (Homo sapiens, UniProt Q86WV6, G230A/H232R/R293Q/R71H) | 5000 to 100000 nM |
| O=C(Nc1cnc(N2CCN(CC(F)(F)F)CC2)c(Cl)c1)Nc1c[nH]c2ccc(Cl)cc12 | hSTING (Homo sapiens, UniProt Q86WV6, G230A/H232R/R293Q/R71H) | 40 to 200 nM |
| Cc1cc(NC(=O)Nc2c[nH]c3ccc(Br)cc23)cnc1N1CCC(F)(F)CC1 | hSTING (Homo sapiens, UniProt Q86WV6, G230A/H232R/R293Q/R71H) | 40 to 200 nM |
| O=C(Nc1cnc(N2CC3(CCOC3)C2)c(Cl)c1)Nc1c[nH]c2cc(F)c(F)cc12 | hSTING (Homo sapiens, UniProt Q86WV6, G230A/H232R/R293Q/R71H) | 200 to 1000 nM |
| O=C(Nc1cnc(N2CCC(F)(F)CC2)c(Cl)c1)Nc1c[nH]c2cc(F)c(Cl)cc12 | hSTING (Homo sapiens, UniProt Q86WV6, G230A/H232R/R293Q/R71H) | 40 to 200 nM |
| O=C(Nc1ccc(C2CCC(F)(F)CC2)nc1)Nc1c[nH]c2ccc(I)cc12 | hSTING (Homo sapiens, UniProt Q86WV6, G230A/H232R/R293Q/R71H) | 40 to 200 nM |
| O=C(Nc1cnc(N2CCC(F)(F)CC2)c(Cl)c1)Nc1c[nH]c2c(Br)cc(Cl)cc12 | hSTING (Homo sapiens, UniProt Q86WV6, G230A/H232R/R293Q/R71H) | 200 to 1000 nM |
| O=C(Nc1ccc(C2CCC(F)(F)CC2)nc1)Nc1c[nH]c2ccccc12 | hSTING (Homo sapiens, UniProt Q86WV6, G230A/H232R/R293Q/R71H) | 200 to 1000 nM |
| O=C(Nc1cc(Cl)c(C2CCC(F)(F)CC2)cn1)Nc1c[nH]c2cc(F)c(F)cc12 | hSTING (Homo sapiens, UniProt Q86WV6, G230A/H232R/R293Q/R71H) | 40 to 200 nM |
| CC(CC1CCC1)n1cc(NC(=O)Nc2c[nH]c3ccc(Cl)cc23)cn1 (stereo not shown) | hSTING (Homo sapiens, UniProt Q86WV6, G230A/H232R/R293Q/R71H) | 200 to 1000 nM |
| CC1(C)OCC(c2ncc(NC(=O)Nc3c[nH]c4ccc(Cl)cc34)cc2Cl)CO1 | hSTING (Homo sapiens, UniProt Q86WV6, G230A/H232R/R293Q/R71H) | 40 to 200 nM |
| O=C(Nc1ccc(C2CN(CC(F)(F)F)C2)c(Cl)c1)Nc1c[nH]c2ccc(Cl)cc12 | hSTING (Homo sapiens, UniProt Q86WV6, G230A/H232R/R293Q/R71H) | 40 to 200 nM |
| O=C(Nc1ccc(N2CCC(F)(F)CC2)nc1)Nc1c[nH]c2cc(Cl)c(Cl)cc12 | hSTING (Homo sapiens, UniProt Q86WV6, G230A/H232R/R293Q/R71H) | 1000 to 5000 nM |
